Overview of reported change in vivo at 20 mg/kg across a group of compounds:
Test system: non-insulin-dependent diabetes induced in rats by Streptozotocin
test-protocol: Antidiabetic activity in the Nostz rat (non-insulin-dependent diabetes induced by neonatal streptozotocin), glycaemia after oral treatment
Type: in vivo
measurement-context: 24 h, 20 mg/kg/D oral, 1 day of treatment, diabetic rats, blood 2 h after last administration, read-out: percentage variation of glycaemia at D1 relative to D0
Where a name gives a salt, the structure may show the parent alone.
quantity-name: change in vivo at 20 mg/kg (%)

compound="CN(C)C1=NC(C)(CCCO)N=C(N)N1 (stereo not drawn) [Compound 7]" data_value=-8
compound="CC(CCC(=O)O)[C@H]1CCC2C3C(C[C@H](O)[C@@]21C)[C@@]1(C)CCC2(CC1C[C@H]3O)N=C(N)NC(N(C)C)=N2 (stereo partly drawn) [Compound 25]" data_value=-4
compound="CNC1=NC2(CCCCC2)N=C(N(C)C)N1 [Compound 22]" data_value=-23
compound="CN(C)C1=NCN=C(N)N1 [Compound 33]" data_value=-7
compound="CN(C)C1=NC(C(C)(C)C)N=C(N)N1 (stereo not drawn) [Compound 42]" data_value=-5
compound="CN(C)C1=NC(c2ccco2)N=C(N)N1 (stereo not drawn) [Compound 40]" data_value=-8
compound="CC1N=C(N(C)C)NC(N(C)C)=N1 [Compound 2, hydrochloride]" data_value=-11
compound="CN(C)C1=NC(C)(C)N=C(N2CCCC2)N1 [Compound 17]" data_value=-12
compound="CC1N=C(N(C)C)NC(N2CCCC2)=N1 (stereo not drawn) [Compound 21]" data_value=-7
compound="CN(C)C1=NC2(CCC(OCc3ccccc3)CC2)N=C(N)N1 (stereo not drawn) [Compound 27]" data_value=-14
compound="CN(C)C1=NC2(CCCCC2)N=C(N)N1 [Compound 4]" data_value=0
compound="CC1N=C(N)NC(N(C)C)=N1 (stereo not drawn) [Compound 18]" data_value=-6
compound="CC(C)C1N=C(N)NC(N(C)C)=N1 (stereo not drawn) [Compound 44]" data_value=-7
compound="CN(C)C1=NC2(CCC(O)CC2)N=C(N)N1 (stereo not drawn) [Compound 28]" data_value=-4
compound="CC(C)CCCC(C)[C@H]1CCC2C3CCC4CC5(CC[C@]4(C)C3CC[C@@]21C)N=C(N)NC(N(C)C)=N5 (stereo partly drawn) [Compound 19]" data_value=-10
compound="CN(C)C1=NC(Cc2ccccc2)N=C(N)N1 (stereo not drawn) [Compound 37]" data_value=-7
compound="CN(C)C1=NC(C)(C)N=C(N)N1 [Compound 3]" data_value=-10
compound="CN1CCC2(CC1)N=C(N)NC(N(C)C)=N2 [Compound 39]" data_value=-6
compound="CN(C)C1=NC(C2CCCCC2)N=C(N)N1 (stereo not drawn) [Compound 34]" data_value=-5
compound="CCC1N=C(N)NC(N(C)C)=N1 (stereo not drawn) [Compound 1, hydrochloride]" data_value=-7
compound="CN(C)C1=NC(C)(C)N=C(N(C)C)N1 [Compound 15]" data_value=-8

----------
Tested on: non-insulin-dependent diabetes induced in rats by Streptozotocin
test-protocol: Antidiabetic activity in the Nostz rat (non-insulin-dependent diabetes induced by neonatal streptozotocin), glycaemia after oral treatment
Type: in vivo
measurement-context: 96 h, 200 mg/kg/D oral, 4 days of treatment, diabetic rats, blood 2 h after last administration, read-out: percentage variation of glycaemia at D4 relative to D0
Structures can show the parent of a compound that is named as a salt.
Everything with change in vivo at 200 mg/kg lower than -20% is not met; everything else, including exactly -20%, is met.

compound="CC1N=C(N)NC(N(C)C)=N1 (stereo not shown)" discrete_label="not met"
compound="CC(C)CCCC(C)[C@H]1CCC2C3CCC4CC5(CC[C@]4(C)C3CC[C@@]21C)N=C(N)NC(N(C)C)=N5 (stereo partly shown)" discrete_label=met
compound="CCC1N=C(N)NC(N(C)C)=N1 (stereo not shown) [Compound 1, hydrochloride]" discrete_label=met
compound="CC(C)CC1N=C(N)NC(N(C)C)=N1 (stereo not shown)" discrete_label=met
compound="CN(C)C1=NC2(CCC(O)CC2)N=C(N)N1 (stereo not shown)" discrete_label=met
compound="CN(C)C1=NC2(CCC(OCc3ccccc3)CC2)N=C(N)N1 (stereo not shown)" discrete_label=met
compound="CCCC1N=C(N)NC(N(C)C)=N1 (stereo not shown)" discrete_label=met
compound=CN(C)C1=NCN=C(N)N1 discrete_label=met
compound="CN(C)C1=NC(Cc2ccccc2)N=C(N)N1 (stereo not shown)" discrete_label=met
compound="CN(C)C1=NC(c2ccco2)N=C(N)N1 (stereo not shown)" discrete_label=met
compound="CN(C)C1=NC(C(C)(C)C)N=C(N)N1 (stereo not shown)" discrete_label=met
compound=CN(C)C1=NC(C)(C)N=C(N)N1 discrete_label="not met"
compound=CN1CCC2(CC1)N=C(N)NC(N(C)C)=N2 discrete_label=met
compound=CN(C)C1=NC(C)(C)N=C(N(C)C)N1 discrete_label=met
compound="CN(C)C1=NC(C2CCCCC2)N=C(N)N1 (stereo not shown)" discrete_label="not met"
compound=CNC1=NC2(CCCCC2)N=C(N(C)C)N1 discrete_label=met
compound=CN(C)C1=NC2(CCCC2)N=C(N)N1 discrete_label=met
compound="CC1N=C(N(C)C)NC(N2CCCC2)=N1 (stereo not shown)" discrete_label="not met"
compound="CC(C)C1N=C(N)NC(N(C)C)=N1 (stereo not shown)" discrete_label="not met"
compound="CC1N=C(N(C)C)NC(N(C)C)=N1 [Compound 2, hydrochloride]" discrete_label=met
compound="C=CCNC1=NC(C)N=C(N(C)C)N1 (stereo not shown)" discrete_label=met
compound=CN(C)C1=NC2(CCCCC2)N=C(N)N1 discrete_label=met
compound="CC(CCC(=O)O)[C@H]1CCC2C3C(C[C@H](O)[C@@]21C)[C@@]1(C)CCC2(CC1C[C@H]3O)N=C(N)NC(N(C)C)=N2 (stereo partly shown)" discrete_label=met
compound="CN(C)C1=NC(C)(CCCO)N=C(N)N1 (stereo not shown)" discrete_label=met
compound=CN(C)C1=NC(C)(C)N=C(N2CCCC2)N1 discrete_label=met

----------
Overview of reported melting point across a group of compounds:
Where a name gives a salt, the structure may show the parent alone.
quantity-name: melting point

compound="CN(C)C1=NC(COc2ccccc2)N=C(N)N1 (stereo not shown) (as salt: toluenesulphonate) [Compound 41]" data_value="194 to 196 °C"
compound="CCNC1=NC(C)(C)N=C(N(C)C)N1 (as salt: fumarate) [Compound 14]" data_value="172 to 174 °C"
compound="CC(CCC(=O)O)[C@H]1CCC2C3C(C[C@H](O)[C@@]21C)[C@@]1(C)CCC2(CC1C[C@H]3O)N=C(N)NC(N(C)C)=N2 (stereo partly shown) (as salt: HCl) [Compound 25]" data_value="> 260 °C"
compound="CN1CCC2(CC1)N=C(N)NC(N(C)C)=N2 (as salt: HCl) [Compound 39]" data_value="> 260 °C"

----------
Structures can show the parent of a compound that is named as a salt.
Overview of reported melting point across a group of molecules:
quantity-name: melting point

molecule="CN(C)C1=NC2(CCCCC2)N=C(N)N1 (as salt: HCl)" quantity_name="melting point" data_value="243 to 245 °C"
molecule="CCC1N=C(N)NC(N(C)C)=N1 (stereo not shown) (as salt: HCl)" quantity_name="melting point" data_value="218 to 220 °C"
molecule="CCNC1=NC2(CCCCC2)N=C(N(C)C)N1 (as salt: HCl)" quantity_name="melting point" data_value="248 to 250 °C"
molecule="CC1N=C(N(C)C)NC(N(C)C)=N1 (as salt: HCl)" quantity_name="melting point" data_value="200 to 202 °C"
molecule="CN(C)C1=NC(C2CC=CCC2)N=C(N)N1 (stereo not shown) (as salt: toluenesulphonate)" quantity_name="melting point" data_value="217 to 219 °C"
molecule="CN(C)C1=NC(Cc2ccccc2)N=C(N)N1 (stereo not shown) (as salt: toluenesulphonate)" quantity_name="melting point" data_value="159 to 161 °C"
molecule="NC1=NC2(CCCCC2)N=C(NCCc2ccccc2)N1 (as salt: salt)" quantity_name="melting point" data_value="170 to 180 °C"
molecule="CNC1=NC2(CCCCC2)N=C(N(C)C)N1 (as salt: HCl)" quantity_name="melting point" data_value="> 260 °C"
molecule="CN(C)C1=NC2(CCC(OCc3ccccc3)CC2)N=C(N)N1 (stereo not shown) (as salt: HCl)" quantity_name="melting point" data_value="> 260 °C"
molecule="CN(C)C1=NC(c2ccc(O)cc2)N=C(N)N1 (stereo not shown) [Compound 13]" quantity_name="melting point" data_value="> 260 °C"
molecule="C=CCNC1=NC(C)(C)N=C(N(C)C)N1 (as salt: HCl)" quantity_name="melting point" data_value="124 to 126 °C"
molecule="CN(C)C1=NC2(CCCC2)N=C(N)N1 (as salt: HCl)" quantity_name="melting point" data_value="207 to 209 °C"
molecule="CN(C)C1=NC(c2ccco2)N=C(N)N1 (stereo not shown) (as salt: HCl)" quantity_name="melting point" data_value="225 to 227 °C"
